Tested on: Fusobacterium necrophorum
Experiment: Antibacterial activity against Fusobacterium necrophorum by CLSI agar dilution method
Assay type: functional
observed.property: MIC50 (µg/mL)
Give bare numbers, in µg/mL.

CCC[C@@H]1C[C@@H](C(=O)N[C@@H]([C@H]2O[C@H](SC)[C@H](O)[C@@H](O)[C@H]2O)[C@H](C)Cl)N(C)C1	0.25
C[C@@H](O)[C@H]1C(=O)N2C(C(=O)O)=C(SCCNC=N)C[C@H]12 [IMIPENEM ANHYDROUS]	0.5
C[C@@H](O)[C@H]1C(=O)N2C(C(=O)O)=C(S[C@@H]3CN[C@H](C(=O)N(C)C)C3)[C@H](C)[C@H]12	0.06

Please find the next compound below.
The compound O=C(N[C@H](CO)[C@H](O)c1ccc([N+](=O)[O-])cc1)C(Cl)Cl showed MIC50 equal to 2

* * *

Tested on: Prevotella bivia
Test: Antibacterial activity against Prevotella bivia assessed as susceptible isolates by CLSI agar dilution method
Format: functional
observed.property: Activity (%)
One number for each entry, in %.

Recorded results for 3 molecules are shown here.
C[C@@H](O)[C@H]1C(=O)N2C(C(=O)O)=C(S[C@@H]3CN[C@H](C(=O)N(C)C)C3)[C@H](C)[C@H]12	100
CC1(C)S[C@@H]2[C@H](NC(=O)Cc3ccccc3)C(=O)N2[C@H]1C(=O)O	6
CO[C@@]1(NC(=O)CSCC#N)C(=O)N2C(C(=O)O)=C(CSc3nnnn3C)CS[C@@H]21	94

// for each molecule below, give its Activity
1. C[C@@H](O)[C@H]1C(=O)N2C(C(=O)O)=C(S[C@@H]3CN[C@H](C(=O)Nc4cccc(C(=O)O)c4)C3)[C@H](C)[C@H]12
2. Cc1ncc([N+](=O)[O-])n1CCO
3. CCN1CCN(C(=O)N[C@@H](C(=O)N[C@@H]2C(=O)N3[C@@H]2SC(C)(C)[C@@H]3C(=O)O)c2ccccc2)C(=O)C1=O

Response:
1. 100
2. 94
3. 71

* * *

System: Peptoniphilus asaccharolyticus
Experiment: Antibacterial activity against beta-lactamase producing Peptoniphilus asaccharolyticus by CLSI agar dilution method
Format: functional
Could you please report measured MIC50 for the items listed next?
One number for each entry, in µg/mL.

CO[C@@]1(NC(=O)CSCC#N)C(=O)N2C(C(=O)O)=C(CSc3nnnn3C)CS[C@@H]21	0.5

// for each molecule below, give its MIC50
1. C[C@@H](O)[C@H]1C(=O)N2C(C(=O)O)=C(S[C@@H]3CN[C@H](C(=O)Nc4cccc(C(=O)O)c4)C3)[C@H](C)[C@H]12
2. C[C@H]1COc2c(N3CCN(C)CC3)c(F)cc3c(=O)c(C(=O)O)cn1c23.C[C@H]1COc2c(N3CCN(C)CC3)c(F)cc3c(=O)c(C(=O)O)cn1c23.O
3. C[C@@H](O)[C@H]1C(=O)N2C(C(=O)O)=C(SCCNC=N)C[C@H]12 [IMIPENEM ANHYDROUS]
4. Cc1ncc([N+](=O)[O-])n1CCO

Response:
1: 0.06; 2: 0.5; 3: 0.06; 4: 0.5

* * *

Could you please report measured MIC90 for the items listed next?
Test system: Prevotella intermedia
Assay: Antibacterial activity against Prevotella intermedia by CLSI agar dilution method
Assay type: functional
One number for each entry, in µg/mL.

CO[C@@]1(NC(=O)CSCC#N)C(=O)N2C(C(=O)O)=C(CSc3nnnn3C)CS[C@@H]21 [CEFMETAZOLE]	8
CC1(C)S[C@@H]2[C@H](NC(=O)Cc3ccccc3)C(=O)N2[C@H]1C(=O)O [PENICILLIN G]	64
C[C@H]1COc2c(N3CCN(C)CC3)c(F)cc3c(=O)c(C(=O)O)cn1c23.C[C@H]1COc2c(N3CCN(C)CC3)c(F)cc3c(=O)c(C(=O)O)cn1c23.O [LEVOFLOXACIN]	16

// for each molecule below, give its MIC90
1. C[C@@H](O)[C@H]1C(=O)N2C(C(=O)O)=C(S[C@@H]3CN[C@H](C(=O)N(C)C)C3)[C@H](C)[C@H]12 [MEROPENEM]
2. CCN1CCN(C(=O)N[C@@H](C(=O)N[C@@H]2C(=O)N3[C@@H]2SC(C)(C)[C@@H]3C(=O)O)c2ccccc2)C(=O)C1=O [PIPERACILLIN]
3. C[C@@H](O)[C@H]1C(=O)N2C(C(=O)O)=C(S[C@@H]3CN[C@H](CNS(N)(=O)=O)C3)[C@H](C)[C@H]12 [DORIPENEM]
4. C[C@@H](O)[C@H]1C(=O)N2C(C(=O)O)=C(SCCNC=N)C[C@H]12 [IMIPENEM ANHYDROUS]
5. C[C@@H](O)[C@H]1C(=O)N2C(C(=O)O)=C(S[C@@H]3CN[C@H](C(=O)Nc4cccc(C(=O)O)c4)C3)[C@H](C)[C@H]12
6. Cc1ncc([N+](=O)[O-])n1CCO [METRONIDAZOLE]
7. O=C(N[C@H](CO)[C@H](O)c1ccc([N+](=O)[O-])cc1)C(Cl)Cl [CHLORAMPHENICOL]

Response:
0.25
128
0.5
0.5
0.5
8
8

* * *

System: Fusobacterium mortiferum
Experiment: Antibacterial activity against Fusobacterium mortiferum assessed as susceptible isolates by CLSI agar dilution method
Format: functional
observed.property: Activity (%)
Numbers only, in %.

C[C@@H](O)[C@H]1C(=O)N2C(C(=O)O)=C(S[C@@H]3CN[C@H](C(=O)Nc4cccc(C(=O)O)c4)C3)[C@H](C)[C@H]12	100
CC1(C)S[C@@H]2[C@H](NC(=O)Cc3ccccc3)C(=O)N2[C@H]1C(=O)O	85
CCC[C@@H]1C[C@@H](C(=O)N[C@@H]([C@H]2O[C@H](SC)[C@H](O)[C@@H](O)[C@H]2O)[C@H](C)Cl)N(C)C1	85

// for each compound below, give its Activity
1. CO[C@@]1(NC(=O)CSCC#N)C(=O)N2C(C(=O)O)=C(CSc3nnnn3C)CS[C@@H]21
2. Cc1ncc([N+](=O)[O-])n1CCO
3. C[C@@H](O)[C@H]1C(=O)N2C(C(=O)O)=C(S[C@@H]3CN[C@H](C(=O)N(C)C)C3)[C@H](C)[C@H]12
4. C[C@@H](O)[C@H]1C(=O)N2C(C(=O)O)=C(S[C@@H]3CN[C@H](CNS(N)(=O)=O)C3)[C@H](C)[C@H]12
5. C[C@@H](O)[C@H]1C(=O)N2C(C(=O)O)=C(SCCNC=N)C[C@H]12 [IMIPENEM ANHYDROUS]
6. O=C(N[C@H](CO)[C@H](O)c1ccc([N+](=O)[O-])cc1)C(Cl)Cl

Response:
100
100
92
100
96
96

The compound CCN1CCN(C(=O)N[C@@H](C(=O)N[C@@H]2C(=O)N3[C@@H]2SC(C)(C)[C@@H]3C(=O)O)c2ccccc2)C(=O)C1=O showed Activity equal to 90

* * *

System: Peptostreptococcus anaerobius
Assay: Antibacterial activity against beta-lactamase producing Peptostreptococcus anaerobius assessed as resistant isolates by CLSI agar dilution method
Type: functional
observed.property: Activity (%)
Numbers only, in %.

Recorded results for 2 molecules are shown here.
Cc1ncc([N+](=O)[O-])n1CCO [METRONIDAZOLE]	9
C[C@@H](O)[C@H]1C(=O)N2C(C(=O)O)=C(SCCNC=N)C[C@H]12 [IMIPENEM ANHYDROUS]	0

Please find the next molecule below.
The molecule C[C@@H](O)[C@H]1C(=O)N2C(C(=O)O)=C(S[C@@H]3CN[C@H](CNS(N)(=O)=O)C3)[C@H](C)[C@H]12 [DORIPENEM] showed Activity equal to 0

* * *

System: Prevotella bivia
Test: Antibacterial activity against Prevotella bivia assessed as susceptible isolates by CLSI agar dilution method
Assay type: functional
observed.property: Activity (%)
Answers are plain numbers, in %.

Recorded results for 3 compounds are shown here.
O=C(N[C@H](CO)[C@H](O)c1ccc([N+](=O)[O-])cc1)C(Cl)Cl [CHLORAMPHENICOL]	100
C[C@@H](O)[C@H]1C(=O)N2C(C(=O)O)=C(S[C@@H]3CN[C@H](CNS(N)(=O)=O)C3)[C@H](C)[C@H]12 [DORIPENEM]	100
CCC[C@@H]1C[C@@H](C(=O)N[C@@H]([C@H]2O[C@H](SC)[C@H](O)[C@@H](O)[C@H]2O)[C@H](C)Cl)N(C)C1 [CLINDAMYCIN]	69

Please find the next compound below.
The compound C[C@@H](O)[C@H]1C(=O)N2C(C(=O)O)=C(SCCNC=N)C[C@H]12 [IMIPENEM ANHYDROUS] showed Activity equal to 94

* * *

System: Prevotella melaninogenica
Test: Antibacterial activity against Prevotella melaninogenica by CLSI agar dilution method
Type: functional
Could you please report measured MIC90 for the items listed next?
Give bare numbers, in µg/mL.

Recorded results for 3 molecules are shown here.
O=C(N[C@H](CO)[C@H](O)c1ccc([N+](=O)[O-])cc1)C(Cl)Cl [CHLORAMPHENICOL]	8
C[C@@H](O)[C@H]1C(=O)N2C(C(=O)O)=C(S[C@@H]3CN[C@H](CNS(N)(=O)=O)C3)[C@H](C)[C@H]12 [DORIPENEM]	0.5
Cc1ncc([N+](=O)[O-])n1CCO [METRONIDAZOLE]	8

Please find the next molecule below.
C[C@@H](O)[C@H]1C(=O)N2C(C(=O)O)=C(S[C@@H]3CN[C@H](C(=O)N(C)C)C3)[C@H](C)[C@H]12 [MEROPENEM] on Prevotella melaninogenica gives MIC90 = 0.25
